Catalogue of IC50 readings, one per entry.
Target: UniProt P23945
Sequence (P23945 18-695): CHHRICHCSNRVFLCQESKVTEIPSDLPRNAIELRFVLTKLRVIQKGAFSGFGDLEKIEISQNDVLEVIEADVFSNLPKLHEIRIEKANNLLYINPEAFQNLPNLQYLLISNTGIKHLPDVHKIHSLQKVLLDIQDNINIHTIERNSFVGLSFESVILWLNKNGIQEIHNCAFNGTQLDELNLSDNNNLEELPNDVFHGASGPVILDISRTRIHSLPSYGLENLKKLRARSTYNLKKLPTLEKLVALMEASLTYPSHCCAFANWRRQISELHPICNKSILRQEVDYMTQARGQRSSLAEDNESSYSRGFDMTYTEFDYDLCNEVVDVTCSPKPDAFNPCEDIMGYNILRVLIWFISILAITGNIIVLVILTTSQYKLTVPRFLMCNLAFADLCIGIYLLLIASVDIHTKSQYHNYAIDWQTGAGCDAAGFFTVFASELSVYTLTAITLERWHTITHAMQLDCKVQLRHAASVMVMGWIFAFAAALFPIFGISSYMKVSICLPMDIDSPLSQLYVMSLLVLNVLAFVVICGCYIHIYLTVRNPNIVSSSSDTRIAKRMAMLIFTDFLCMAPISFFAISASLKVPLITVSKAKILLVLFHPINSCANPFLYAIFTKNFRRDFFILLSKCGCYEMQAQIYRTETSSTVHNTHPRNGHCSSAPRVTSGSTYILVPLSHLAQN
Experiment: HTRF assay for measuring cAMP in cells (FSH-antagonistic effect)
Details: hFSHR clone 16 cells (CHO cells stably transfected with the human FSH receptor), in the presence of 1e-9 mol/l hFSH, 37° C. for 2 h
MEASURED PROPERTY: IC50 (nM)

INSERT INTO measurements (compound, readout_units, reported_result) VALUES
  ('O=C(N[C@@H](CO)Cc1c[nH]c2ccccc12)c1cccc(C#Cc2ccccn2)c1 [Example 160]', 'nM', 6000),
  ('Cc1ccc(C#Cc2ccc(OC(C)C)c(C(=O)N[C@@H](CO)Cc3c[nH]c4ccccc34)c2)nc1 [Example 94]', 'nM', 80),
  ('CC(C)Oc1ccc(C#Cc2ccc(C(=O)NCCC(N)=O)cc2)cc1C(=O)N[C@@H](CO)Cc1c[nH]c2ccccc12 [Example 177]', 'nM', 20),
  ('COc1ccc(C#Cc2ccc(OC(C)C)c(C(=O)N[C@@H](CO)Cc3c[nH]c4ccccc34)c2)cc1F [Example 30]', 'nM', 150);

Source: patent US20080221195A1
